Target: full-length human Mineralocorticoid Receptor (MR) (Homo sapiens, UniProt P08235)
Construct: host or cells: PathHunter CHO-K1 cells
Sequence (P08235 whole entry): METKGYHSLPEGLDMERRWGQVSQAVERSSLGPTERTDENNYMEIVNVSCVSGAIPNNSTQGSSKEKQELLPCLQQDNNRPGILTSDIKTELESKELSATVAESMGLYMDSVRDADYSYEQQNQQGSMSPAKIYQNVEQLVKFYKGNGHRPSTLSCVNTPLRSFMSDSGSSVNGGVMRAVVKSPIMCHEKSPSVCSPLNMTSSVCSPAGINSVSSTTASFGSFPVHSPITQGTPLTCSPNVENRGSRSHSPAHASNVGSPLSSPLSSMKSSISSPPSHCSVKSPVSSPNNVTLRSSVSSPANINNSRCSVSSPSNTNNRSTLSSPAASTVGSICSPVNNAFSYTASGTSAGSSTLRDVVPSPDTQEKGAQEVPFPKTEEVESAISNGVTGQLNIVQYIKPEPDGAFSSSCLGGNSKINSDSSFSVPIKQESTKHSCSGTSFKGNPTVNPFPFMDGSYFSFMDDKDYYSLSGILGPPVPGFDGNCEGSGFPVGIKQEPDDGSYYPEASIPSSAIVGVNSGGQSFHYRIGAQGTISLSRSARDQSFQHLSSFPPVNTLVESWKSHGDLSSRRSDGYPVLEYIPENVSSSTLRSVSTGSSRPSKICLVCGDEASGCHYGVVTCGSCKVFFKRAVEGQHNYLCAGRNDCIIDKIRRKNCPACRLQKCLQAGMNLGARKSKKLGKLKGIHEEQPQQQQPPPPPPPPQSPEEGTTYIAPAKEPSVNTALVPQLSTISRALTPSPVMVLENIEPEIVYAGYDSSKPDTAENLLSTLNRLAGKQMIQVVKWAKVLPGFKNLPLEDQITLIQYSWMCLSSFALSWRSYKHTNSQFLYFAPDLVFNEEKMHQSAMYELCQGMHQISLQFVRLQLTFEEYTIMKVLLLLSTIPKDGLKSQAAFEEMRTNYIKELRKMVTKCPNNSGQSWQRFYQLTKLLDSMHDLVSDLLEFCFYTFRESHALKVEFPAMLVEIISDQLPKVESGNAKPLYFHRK
Assay: human MR NH Pro assay (PathHunter Protein:Protein interaction assay), MR antagonist activity
Format: cell-based
Settings: PathHunter CHO-K1 cells overexpressing human MR; aldosterone about 0.3 nM; 6 hours at 37° C.; luminescence; read-out: Primary Assay IP rating (IP = inflection point for a given dose-response titration curve)
parameter: IC50

// Input: CC[C@](C(N)=O)(c1ccc(Cl)cc1)n1ccc2c(NS(C)(=O)=O)cccc21 [Compound 40] . Output its IC50 only. 100 to 500 nM

// Input: CCC(c1ccc(Cl)cc1)(C(O)COC)n1ccc2c(NS(C)(=O)=O)cccc21 (stereo not drawn) [Compound 173] . Output its IC50 only. 100 to 500 nM

Others:
// Input: CCNC(=O)C(CC)(c1ccc(Cl)cc1)n1ccc2c(NS(C)(=O)=O)cccc21 (stereo not drawn) [Compound 46] . Output its IC50 only. 100 to 500 nM
